Target: human TLR8 (Homo sapiens)
Sequence (Q9NR97 27-1041): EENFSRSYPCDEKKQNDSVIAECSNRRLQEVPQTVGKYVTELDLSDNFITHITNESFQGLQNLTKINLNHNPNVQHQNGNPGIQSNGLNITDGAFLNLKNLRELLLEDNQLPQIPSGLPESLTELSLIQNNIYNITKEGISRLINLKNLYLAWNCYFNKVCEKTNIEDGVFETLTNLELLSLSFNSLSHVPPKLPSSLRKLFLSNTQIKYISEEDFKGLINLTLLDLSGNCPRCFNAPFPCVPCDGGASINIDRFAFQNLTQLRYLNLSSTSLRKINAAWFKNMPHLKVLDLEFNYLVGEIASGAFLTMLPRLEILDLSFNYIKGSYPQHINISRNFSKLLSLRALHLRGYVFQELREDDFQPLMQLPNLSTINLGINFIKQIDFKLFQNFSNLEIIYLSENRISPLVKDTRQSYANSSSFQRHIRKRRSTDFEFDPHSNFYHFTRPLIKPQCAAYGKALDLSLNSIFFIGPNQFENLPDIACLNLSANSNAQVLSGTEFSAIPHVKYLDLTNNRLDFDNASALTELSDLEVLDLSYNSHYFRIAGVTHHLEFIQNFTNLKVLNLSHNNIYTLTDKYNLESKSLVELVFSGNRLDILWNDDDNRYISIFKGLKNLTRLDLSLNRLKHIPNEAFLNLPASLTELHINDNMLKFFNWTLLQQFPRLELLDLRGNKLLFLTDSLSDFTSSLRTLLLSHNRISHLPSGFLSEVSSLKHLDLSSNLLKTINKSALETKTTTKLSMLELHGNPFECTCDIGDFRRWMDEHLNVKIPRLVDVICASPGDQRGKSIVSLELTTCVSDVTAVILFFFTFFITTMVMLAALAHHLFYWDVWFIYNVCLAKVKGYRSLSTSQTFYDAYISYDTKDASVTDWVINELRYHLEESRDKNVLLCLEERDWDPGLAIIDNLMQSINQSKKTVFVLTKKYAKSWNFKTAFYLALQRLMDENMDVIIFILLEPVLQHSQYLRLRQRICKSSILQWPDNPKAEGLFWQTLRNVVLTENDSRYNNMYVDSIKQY
Test: TLR8 inhibition reporter assay (HEK-Blue cells, SEAP reporter, R848 stimulation)
Conditions: HEK-Blue cells overexpressing human TLR8, SEAP reporter, R848 15.9 μM
Excerpt: TLR7/8/9 Inhibition Reporter Assays HEK-Blue™-cells (Invivogen) overexpressing human TLR7, TLR8 or TLR9 receptors were used for screening inhibitors of these receptors using an inducible SEAP (secreted embryonic alkaline phosphatase) reporter gene under the control of the IFN-β minimal promoter fused to five NF-κB and AP-1-binding sites. […]
pIC50: −log10 of the molar value.
Below, each entry is listed alongside its reported pIC50.

Query string: Look up pIC50 for this compound: CC(C)c1c(-c2ccnc3[nH]ncc23)[nH]c2cc(C(F)(F)F)c(C3CCN(CC4CCNC4)CC3)cc12 (stereo not shown) [Example 851]
Result string: 6.00 to 7.00

Query string: Look up pIC50 for this compound: Cc1c(-c2nccc3[nH]cnc23)[nH]c2ccc(C3CCN(C4CCN(C(C)C)CC4)CC3)cc12 [Example 805]
Result string: 4.30 to 6.00

Query string: Look up pIC50 for this compound: Cc1c(-c2[nH]c3ccc(C4CCN(CC(=O)N(C)C)CC4)cc3c2C(C)C)ccc2nnnn12 [Example 308]
Result string: > 7.00

Query string: Look up pIC50 for this compound: CNCCN1CCC(c2ccc3[nH]c(-c4cncc5ccccc45)c(C)c3c2)CC1 [Example 665]
Result string: < 5.51

Values were extracted from patent US11739098B2.
